TEST_PROTOCOL: small-molecule microarray binders of probe aLefty2, primary screen, biochemical, biotinylated probe, 635/667 nm fluorescence (AID 1094);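 also: score merges spot fluorescence near 667 nm with spot signal-to-noise ratio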
TEST_CONDITIONS: higher = more signal
Provide the reported composite z-score of each item.
Give bare numbers.

Sample answers from the record:
COMPOUND: CCOC(=O)[C@H](Cc1ccccc1)NC(=O)CCC1CC(OC(=O)NCCc2ccc(F)cc2)CC2(CCCC(COC(=O)NCc3cccc(C(F)(F)F)c3)O2)O1 (some centres undefined)
NUMERIC_READOUT: -0.0008

COMPOUND: CC(C)[C@@H](OCc1ccccc1)[C@H](C)C=NOC[C@@H](O)[C@H]1O[C@@H]2OC(C)(C)O[C@@H]2[C@H]1O
NUMERIC_READOUT: -0.132

COMPOUND: C#CCCCON=C1C[C@@H](O)[C@@H](O)[C@@H]2[C@@H]3C(=O)N(C[C@@H]4CCCO4)C(=O)[C@@H]3CC[C@@H]12
NUMERIC_READOUT: -0.119

COMPOUND: COC(=O)CC=C[C@@H](C)[C@@H](C=NOC(C)CN1CCCCc2nc(C)c(C)cc21)OC (some centres undefined)
NUMERIC_READOUT: -0.0063

COMPOUND: COc1ccc(COC(=O)NN=C2C[C@@H](O)[C@@H](O)[C@@H]3[C@@H]4C(=O)N(C[C@@H]5CCCO5)C(=O)[C@@H]4CC[C@@H]23)cc1
NUMERIC_READOUT: -0.145

Provide composite z-score for all items below, preserving their order.
1. CO[C@H]1COC(=O)[C@H](C)COC(=O)[C@H](C)NC(=O)CC=C[C@H]1C
2. O=C1[C@H]2[C@H]3[C@H](O)[C@H](O)CC(=NO[C@@H]4O[C@H](CO)[C@@H](O)[C@H](O)[C@H]4O)[C@@H]3CC[C@H]2C(=O)N1c1cccc(Oc2ccccc2)c1
3. COC(=O)[C@@H]1CC[C@H](C)[C@@H](c2ccc(C)cc2)N1C(=O)c1ccc(C=NO[C@@H](C)c2cc(-c3c(C)cc(C)cc3C)no2)cc1
4. O=C1C2=CC[C@H]3C(=O)N(c4ccc(F)cc4F)C(=O)[C@H]3[C@H]2[C@H](O)[C@@H]2O[C@H]12
5. CC(=O)OC[C@H]1O[C@@H](ON=C(C)CCN2CCCCc3nc(C)c(C)cc32)[C@H](OC(C)=O)[C@@H](OC(C)=O)[C@@H]1OC(C)=O
6. CCOC(=O)CCN1C(=O)[C@H]2[C@H]3[C@H](O)[C@H](O)CC(=O)[C@@H]3CC[C@H]2C1=O
7. COC(=O)[C@@H]1CC[C@H](C)[C@@H](c2ccc(Br)cc2)N1C[C@H](O)CN=[N+]=[N-]

[-0.166, -0.028, -0.0727, -0.124, -0.0179, -0.198, -0.181]

Provide composite z-score for all items below, preserving their order.
1. O=C1[C@H]2[C@H]3[C@H](O)[C@H](O)CC(=NOC[C@@H](O)COCc4ccco4)[C@@H]3CC[C@H]2C(=O)N1Cc1ccccc1
2. CCN1C(=O)[C@H]2[C@H]3[C@H](O)[C@H](O)CC(=NOC[C@@H](O)COCc4ccco4)[C@H]3CC[C@H]2C1=O

1: -0.166; 2: -0.339

====

STUDY_TARGET: NADPH oxidase 4 (Homo sapiens)
TEST_PROTOCOL: NOX4-dependent H2O2 signal modulators, primary screen, NOX inhibitor project, cell-based, HEK293-NOX4, tetracycline-induced, Amplex Red fluorescence (AID 1160)
TEST_CONDITIONS: 45 min, higher = more signal, called active from +8 up or from −8 down
Provide the reported z-score of each item.
Answers are plain numbers.

Sample answers from the record:
MOLECULE: COc1ccc(O[C@H]2C=C[C@@H](c3ccccc3)O[C@@H]2CO)cc1
ASSAY_METRIC: z-score
NUMERIC_READOUT: -0.634
//
MOLECULE: CC(C)CON=C1[C@H]2CCn3c(=O)n(C)c(=O)n3[C@H]2[C@H](O)[C@@H]2O[C@H]12
ASSAY_METRIC: z-score
NUMERIC_READOUT: 0.0343
//
MOLECULE: COc1ccc(COC(=O)NN=C2C[C@@H](O)[C@@H](O)[C@@H]3[C@@H]4C(=O)N(c5cccc(Oc6ccccc6)c5)C(=O)[C@@H]4CC[C@H]23)cc1
ASSAY_METRIC: z-score
NUMERIC_READOUT: -1.6

Kindly consider the entry below.
# input molecule: CCOC(=O)[C@H](CC(C)C)NC(=O)CCC1CC(OC(=O)NCc2ccc3c(c2)OCO3)CC2(CCCC(COC(=O)NCc3ccccc3)O2)O1 (some centres undefined) ; wanted: its z-score
0.47

====

TEST_PROTOCOL: modulators of S6 phosphorylation in cells, primary screen, cell-based, A549, cytoblot, luminescence, serum-stimulated (AID 1158);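 also: serum-stimulated A549 lung adenocarcinoma cells; signal is phosphorylated S6 detected by cytoblot immunostaining with HRP secondary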
TEST_CONDITIONS: A549 phospho-S6 cytoblot, 5 h, higher = more signal
ASSAY_METRIC: z-score
One number for each entry.

Sample answers from the record:
COMPOUND: CC(=O)OC[C@H]1O[C@H](CC=NO[C@@H](C)c2cc(-c3c(C)cc(C)cc3C)no2)C=C[C@@H]1OC(C)=O
ASSAY_METRIC: z-score
NUMERIC_READOUT: -0.194
//
COMPOUND: CC(CCN1CCCCc2nc(C)c(C)cc21)=NO[C@H](C)c1cn([C@@H]2COC[C@H]2O)nn1
ASSAY_METRIC: z-score
NUMERIC_READOUT: -0.363
//
COMPOUND: CCN1C(=O)[C@H]2[C@H]3[C@H](O)[C@H](O)CC(=NNC(=O)OCc4ccccc4)[C@@H]3CC[C@H]2C1=O
ASSAY_METRIC: z-score
NUMERIC_READOUT: -0.376
//
COMPOUND: C[C@@H](c1ccccc1)N1C(=O)[C@H]2[C@H]3[C@H](O)[C@H](O)CC(=NOCc4ccccc4)[C@@H]3CC[C@H]2C1=O
ASSAY_METRIC: z-score
NUMERIC_READOUT: -0.547
//
COMPOUND: COC(=O)[C@@H]1CC[C@H](C)[C@@H](c2ccc(C)cc2)N1C(=O)c1ccc(C=NO[C@@H](C)c2cc(-c3c(C)cc(C)cc3C)no2)cc1
ASSAY_METRIC: z-score
NUMERIC_READOUT: 0.677
//
COMPOUND: O=C1C[C@@H](O)[C@@H](O)[C@@H]2[C@@H]3C(=O)N(Cc4ccccc4)C(=O)[C@@H]3CC[C@H]12
ASSAY_METRIC: z-score
NUMERIC_READOUT: -0.254
//
COMPOUND: CON=C(C)CCN1CCCCc2nc(C)c(C)cc21
ASSAY_METRIC: z-score
NUMERIC_READOUT: -0.834

Kindly consider the entry below.
# input compound: C=CC[C@@H]1C=CC(ON=C(C)C)[C@@H](CO)O1 (stereo partly drawn) ; wanted: its z-score
-0.0323

====

STUDY_TARGET: Streptavidin (Streptomyces avidinii)
TEST_PROTOCOL: streptavidin binders on small-molecule microarray, primary screen, artefact control for SMM compound annotation, biophysical, 635/667 nm fluorescence (AID 1147);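 also: signal reflects streptavidin binding to arrayed compounds as a control protein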
TEST_CONDITIONS: streptavidin binding, higher = more signal
Decide using composite z-score: a value greater than or equal to 0.2 is y, a smaller one is n.

COMPOUND: CCOC(=O)[C@H](Cc1ccccc1)NC(=O)CCC1CC(OC(=O)NCc2cccc3ccccc23)CC2(CCCC(COC(=O)NCc3ccc4c(c3)OCO4)O2)O1 (some centres not stated)
CLASS: n
--
COMPOUND: C=C(C)C(=O)OC[C@H]1CN2[C@@H](CC[C@@H](C)[C@@H]2c2ccc(Br)cc2)C(=O)O1
CLASS: n
--
COMPOUND: CCN1C(C)=C(C(=O)OC)[C@@H](c2ccccc2)N2C(=O)[C@](O)(C(=O)OC)CC(C(C)=O)=C12
CLASS: n
--
COMPOUND: C#CCCCON=C1C[C@@H](O)[C@@H](O)[C@@H]2[C@@H]3C(=O)N(C[C@@H]4CCCO4)C(=O)[C@@H]3CC[C@@H]12
CLASS: y
--
COMPOUND: CCOC(=O)CCN1C(=O)[C@H]2[C@H]3[C@H](O)[C@H](O)CC(=O)[C@@H]3CC[C@H]2C1=O
CLASS: n

State whether the measured composite z-score reaches 0.2, counting equality as reaching it, for C#CCCCON=C1C[C@@H](O)[C@@H](O)[C@@H]2[C@@H]3C(=O)N([C@@H](C)c4ccccc4)C(=O)[C@@H]3CC[C@@H]12
y

Would you mind doing CC1(C)O[C@H]2OC([C@H](O)CON3C(=O)c4ccccc4C3=O)[C@H](O)[C@H]2O1 (some centres not stated) as well?
n
